Measured pIC50 by item
- System: Pfa1 cells
- measurementDescription: Inhibition of non-apoptotic cell death after tamoxifen-induced GPx4 knockout in a recombinant cell line (Example B.4)
- Format: cell-based
- measurementSetup: Mus musculus, read-out: Pfa1/TAM IC50
pIC50: −log10 of the molar value.

>>> df
                                   compound  result
0  Fc1cc2c(cc1F)NC1(CCNCC1)C(NCc1ccccc1)=N2  > 7.30
1  c1ccc(CNC2=Nc3ccccc3NC23CCCNCC3)cc1 (stereo not shown)  > 6.00
2  FC(F)(F)c1ccc2c(c1)N=C(NCc1ccccc1)C1(CCCCC1)N2  > 6.30
3  Clc1ccc2c(c1)N=C(NCc1ccccc1)C1(CCCCC1)N2  > 6.70
4      c1ccc(CCCNC2=Nc3ccccc3NC23CCCCC3)cc1  > 6.00
5  Cc1cc2c(cc1C)NC1(CCN(C)CC1)C(NCc1ccccc1)=N2  > 6.70

QUERY: Determine from records and report pIC50 for `CN1CCC2(CC1)Nc1ccccc1N=C2NCc1cccc(C(F)(F)F)c1`
RESULT: > 7.30

QUERY: Give the measured pIC50 for `Fc1ccc(CNC2=Nc3ccccc3NC23CCOCC3)c(F)c1`
RESULT: > 5.70

QUERY: Entry `Cc1cc2c(cc1C)NC1(CCNCC1)C(NCc1cccc(Cl)c1)=N2` needs its pIC50 filled in; supply it.
RESULT: > 8.00

QUERY: Note down pIC50 recorded for `CN1CCC2(CC1)Nc1ccccc1N=C2NCc1ccccc1Cl`
RESULT: > 7.00
